Test system: THRa:RXRa (NR concentration 90 nM, RXRa partner concentration 90 nM)
Assay Remarks: PBM binding z-score (relative to random genomic background probes); higher = stronger binding; sequences stand for … in GC…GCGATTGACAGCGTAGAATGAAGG
Use 3 as the dividing line for PBM binding z-score, with the line itself on the t side and lower values as f.

Worked examples follow.
Item ATCTCTAGGTAAGACTCAGTTCAGTGAAGAACGC with PBM binding z-score of 3 or above?
f

Item CGTCCAAAGTCATAGGAGGTCAGTGAAGACAGAT with PBM binding z-score of 3 or above?
t

Item CGTCAATGTTCAACTAAGGTAACGTAAAGCACGC with PBM binding z-score of 3 or above?
t

Further cases:
Item TCTAGTTGGTCACGGCGGTCACACACGACGGGTA with PBM binding z-score of 3 or above?
f

Item GCTGCTAGATCAACTGATGGTCAGCTAAAGCTCG with PBM binding z-score of 3 or above?
f

Item ACTCAGAGGACAAAGGTCAGAGCTACGCCAGTGA with PBM binding z-score of 3 or above?
t

Item TCTGCTAGGTCAACGATCGTCAGCTAATCTGCTA with PBM binding z-score of 3 or above?
f

Item CAAGCTAGGTCACAGAGGTCAAAGTCCGTGCGTA with PBM binding z-score of 3 or above?
t

Item GCATATAGGTAATACAAGGTGAAAGACCGATTGT with PBM binding z-score of 3 or above?
t

====

System: RXRa DBDmut IVT, anti-RXR (DBD mutation: RXRa K156A/R161A, NR concentration 90 nM)
Assay Remarks: PBM binding z-score (relative to random genomic background probes); higher = stronger binding; sequences stand for … in GC…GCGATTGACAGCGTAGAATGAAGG
Use 0.6 as the dividing line for PBM binding z-score, with the line itself on the y side and lower values as n.

Worked examples follow.
Item TGAATTAGGTTAAAGATCAGGGAACGTGGCGTCG with PBM binding z-score of 0.6 or above?
n

Item CCTTACGGGTCACTGACAGGTGATAGCATTTGGA with PBM binding z-score of 0.6 or above?
y

Further cases:
Item ATCTCTAGGTAACCAAGTTCACTGAATGCCGAAC with PBM binding z-score of 0.6 or above?
y

Item TCTTGTAGAACAATAGAGGTTAAGAAAGTGCGCT with PBM binding z-score of 0.6 or above?
y

Item CCTCGGAGGACAGAAGGACAGAGCTGTCCGCTTT with PBM binding z-score of 0.6 or above?
n

Item CCTGCTAGGTCATGCTCAGCTAATCTACAGTATG with PBM binding z-score of 0.6 or above?
y

====

Tested on: PPARg:RXRa 90nM:30nM, anti-RXR (NR concentration 90 nM, RXRa partner concentration 30 nM)
Assay Remarks: PBM binding z-score (relative to random genomic background probes); higher = stronger binding; sequences stand for … in GC…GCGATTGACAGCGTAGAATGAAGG
Observable: PBM binding z-score
Form rule: numeric answer, no unit written next to it.

Consider AGAATGAGGTTATACGTAGATCCGGGAAGAAAGT . Its measured PBM binding z-score is 1.68

Consider TAGCCTAGGTCACGCGGGCCAGTATAGTGTCGGC . Its measured PBM binding z-score is 3.02

Consider GTACCAAGGTGAATAGGTCGTTGGTGAGTAGGCG . Its measured PBM binding z-score is 1.13

Consider ATATGTAGGTTAGCTGGGGTCGTTCAGACTAGGC . Its measured PBM binding z-score is 2.73

Consider CGTCCAAGTTCAACTAAGGTAACGTAAAGCACGC . Its measured PBM binding z-score is 0.966

Consider GCTAGTTGGTCAGTAAAAGGTCAAACACCGGTCG . Its measured PBM binding z-score is 4.37

Consider ATATGTAGGTTACATCCGGATCATTCAGGCTATG . Its measured PBM binding z-score is 3.4

Consider ACAGACAGCTGAGTGAAGGTAACTCAGCTGGACG . Its measured PBM binding z-score is -0.561

====

System: PPARg:RXRa 30nM:10nM, anti-RXR (NR concentration 30 nM, RXRa partner concentration 10 nM)
Assay Remarks: PBM binding z-score (relative to random genomic background probes); higher = stronger binding; sequences stand for … in GC…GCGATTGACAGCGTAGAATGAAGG
Observable: PBM binding z-score
Form rule: numeric answer, no unit written next to it.

// known answers, use as guide
Consider ATCTCTAGGTAAAGATAGTTCAGCGAATGCAAAT . Its measured PBM binding z-score is 0.395

Consider CGAACGAGGGCATGAGTTGATTGCAAATGCCGAT . Its measured PBM binding z-score is 0.205

Consider GCAGACAGGTCAAACGCAGGTAACTCAGGGTGGC . Its measured PBM binding z-score is 0.933

Consider TCTAGTTGTTCAAAGGTCACACACTCGAAATGCG . Its measured PBM binding z-score is 6.77

Consider TCTTGTAGATCAAAGGTTAAGAATGCCGAAGCCT . Its measured PBM binding z-score is 8.02

Proceed to the following item.
Consider TTACCATGGTGAAAGGTCGTTGATGCACGCCTTG . Its measured PBM binding z-score is 5.62

====

Test system: PPARg:RXRa DBDmut IVT, anti-RXR (DBD mutation: RXRa K156A/R161A, NR concentration 270 nM, RXRa partner concentration 90 nM)
Assay Remarks: PBM binding z-score (relative to random genomic background probes); higher = stronger binding; sequences stand for … in GC…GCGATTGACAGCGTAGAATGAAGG
Observable: PBM binding z-score
Form rule: numeric answer, no unit written next to it.

Consider AGTCAAAGTTCAACTAGGTAACGTAAGATATGCT . Its measured PBM binding z-score is 1.28

Consider CCTACTGGGCCATCAGTTCATTGATATCAACGTT . Its measured PBM binding z-score is 4.11

Consider ATATGTAGGCTAAGGGTCATTCAGGTTGGTTCGC . Its measured PBM binding z-score is 5.51

Consider CAAACTAGATCAAAGGTCAAAGTCGAGCCAACCA . Its measured PBM binding z-score is 4.3

Consider TAGCCTAGATCATGGGCCAGTATACCACGCGAAC . Its measured PBM binding z-score is 0.188

Consider CGAACTAGGTCATTGACAGGTCAGTGAATAGTAA . Its measured PBM binding z-score is 8.05

Further cases:
Consider CGTCCAAGGTCATAGGAGGTGAGTGAAGACAGAT . Its measured PBM binding z-score is 2.78

Consider GCTAGCAGGCCCTTTGGGTCACTCAATGACGGGC . Its measured PBM binding z-score is -0.306

Consider CATCGGAGGACAACAGGAGGTCAGAGCTGCCAGA . Its measured PBM binding z-score is 0.575

====

Test system: THRa homodimer (NR concentration 90 nM)
Assay Remarks: PBM binding z-score (relative to random genomic background probes); higher = stronger binding; sequences stand for … in GC…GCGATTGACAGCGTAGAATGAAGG
Observable: PBM binding z-score
Form rule: numeric answer, no unit written next to it.

// known answers, use as guide
Consider ATCTCTAGGTAAGACGCAGTTCAGTGAAGAACGC . Its measured PBM binding z-score is -0.325

Consider CCAGACAGGTGAAAGGTAATTCAGTCTGGTACGC . Its measured PBM binding z-score is -0.243

Consider CGTACTAGGTCATCCAGGACAGTGAATACATTGA . Its measured PBM binding z-score is 2.4

Further cases:
Consider TCAGACAAGTGAAGGTAACTCAGGTACGCAGTCG . Its measured PBM binding z-score is -0.375

Consider ATCGAAAGGTCGAGGTGAGTATCGAGAAAGGGAA . Its measured PBM binding z-score is 0.543

Consider CCTTCCGGGTCACGAGGTTATAGCACGACGAGCG . Its measured PBM binding z-score is 2.95

Consider CCGACTGGGGCAGAAAGGTCACCATACCATCCGG . Its measured PBM binding z-score is 1.38

Consider TCATATAGGTTAATGCTAGGTGAAAGTCCGATCT . Its measured PBM binding z-score is 1.08

Consider CGGCCAAGGTCAGAGAGGTCAGTGAATGCCGAGT . Its measured PBM binding z-score is 2.42

Consider GCTATTAGTTGAAAGGGCGACCGAATGATTCTCG . Its measured PBM binding z-score is -0.468

Consider GCTTGTAGATCAAGGTTAAGAACGACTAAGCTAA . Its measured PBM binding z-score is -0.079

Consider ATCGAAAGGTCGAGGTGAGTATTGAGAAAGGGAA . Its measured PBM binding z-score is 0.768
